# Tested on: kidney
# Assay Comment: Toxicity to kidney determined by blood examination
# Type: in vivo, mice
# Experimental Conditions: serum, 80 mg/kg mouse intraperitoneally; Table 2, no administration 0.8
Give Creatinine for every item shown.
Give bare numbers, in mg/dL.

Would you please look over these solved cases?
CCC(C)c1nc2c3nc(C(=O)O)cc(C(=O)O)c3c3[nH]c(C(=O)O)cc3c2o1 (stereo not shown) [1-Methylpropyl OPQ] : 0.8
O=C(O)c1cc(C(=O)O)c2c(n1)c1nc(Cc3ccccc3)oc1c1cc(C(=O)O)[nH]c12 [Benzyl OPQ] : 0.7
O=C(O)c1cc(C(=O)O)c2c(n1)c1ncoc1c1cc(C(=O)O)[nH]c12 [OPQ, oxazopyrroloquinoline] : 0.8

Turning to the following molecule.
query: # Creatinine lookup, item CSCCc1nc2c3nc(C(=O)O)cc(C(=O)O)c3c3[nH]c(C(=O)O)cc3c2o1 [2-Methylthioethyl OPQ]
result: 0.7

====

# System: kidney
# Assay Comment: Toxicity to kidney determined by blood examination
# Assay type: in vivo, mice
# Experimental Conditions: serum, 160 mg/kg mouse intraperitoneally; Table 2, no administration 78
# Experimental: After one day from administration, the mice were fasted (only water was given) and after lapse of 18 hours, blood was collected and serum was obtained therefrom. Glucose, urea nitrogen and creatinine in the serum were examined using FUJI Dry Chemslide (manufactured by Fuji Photo Film Co., Ltd.). […] Thereafter, the mice were fasted (with giving only water) and after lapse of 18 hours, blood was collected and serum was obtained therefrom. […]
Metric Name: Glucose
Hi, when you answer, please include the unit after the number. Thanks!

Would you please look over these solved cases?
CCC(C)c1nc2c3nc(C(=O)O)cc(C(=O)O)c3c3[nH]c(C(=O)O)cc3c2o1 (stereo not shown) [1-Methylpropyl OPQ] : 87 mg/dL
CSCCc1nc2c3nc(C(=O)O)cc(C(=O)O)c3c3[nH]c(C(=O)O)cc3c2o1 [2-Methylthioethyl OPQ] : 97 mg/dL
O=C(O)c1cc(C(=O)O)c2c(n1)c1nc(Cc3ccccc3)oc1c1cc(C(=O)O)[nH]c12 [Benzyl OPQ] : 87 mg/dL

Turning to the following compound.
query: # Glucose lookup, item O=C(O)c1cc(C(=O)O)c2c(n1)c1ncoc1c1cc(C(=O)O)[nH]c12 [OPQ, oxazopyrroloquinoline]
result: 90 mg/dL

====

# Tested on: kidney
# Assay Comment: Toxicity to kidney determined by blood examination
# Assay type: in vivo, mice
# Experimental Conditions: serum, 80 mg/kg mouse intraperitoneally; Table 2, no administration 78
Metric Name: Glucose (mg/dL)
Numbers only, in mg/dL.

Would you please look over these solved cases?
CSCCc1nc2c3nc(C(=O)O)cc(C(=O)O)c3c3[nH]c(C(=O)O)cc3c2o1 [2-Methylthioethyl OPQ] : 88
CCC(C)c1nc2c3nc(C(=O)O)cc(C(=O)O)c3c3[nH]c(C(=O)O)cc3c2o1 (stereo not shown) [1-Methylpropyl OPQ] : 104
O=C(O)c1cc(C(=O)O)c2c(n1)c1ncoc1c1cc(C(=O)O)[nH]c12 [OPQ, oxazopyrroloquinoline] : 86

Turning to the following compound.
query: Identify the measured Glucose of O=C(O)c1cc(C(=O)O)c2c(n1)c1nc(Cc3ccccc3)oc1c1cc(C(=O)O)[nH]c12 [Benzyl OPQ] for kidney.
result: 87

====

# Tested on: kidney
# Assay Comment: Toxicity to kidney determined by blood examination
# Format: in vivo, mice
# Experimental Conditions: serum, 80 mg/kg mouse intraperitoneally; Table 2, no administration 24
Give Urea nitrogen for every item shown.

Would you please look over these solved cases?
O=C(O)c1cc(C(=O)O)c2c(n1)c1nc(Cc3ccccc3)oc1c1cc(C(=O)O)[nH]c12 [Benzyl OPQ] : 23 mg/dL
O=C(O)c1cc(C(=O)O)c2c(n1)c1ncoc1c1cc(C(=O)O)[nH]c12 [OPQ, oxazopyrroloquinoline] : 23 mg/dL
CCC(C)c1nc2c3nc(C(=O)O)cc(C(=O)O)c3c3[nH]c(C(=O)O)cc3c2o1 (stereo not shown) [1-Methylpropyl OPQ] : 22 mg/dL

Turning to the following compound.
query: Identify the measured Urea nitrogen of CSCCc1nc2c3nc(C(=O)O)cc(C(=O)O)c3c3[nH]c(C(=O)O)cc3c2o1 [2-Methylthioethyl OPQ] for kidney.
result: 26 mg/dL

====

# Study System: aldose reductase of kidney (Canis lupus familiaris, UniProt A0A8I3P2L6)
# Assay Comment: Inhibitory effect on aldose reductase of kidney
# Format: biochemical, dog
# Experimental Conditions: concentration 5x10^-7 M; read-out: Degree of inhibition for aldose reductase (%)
# Procedure: Medulla of kidney of dog was homogenized with 10mM phosphoric acid buffer (pH 7.0) containing 2mM dithiothreitol in an amount of four times the volume of kidney medulla and subjected to centrifugation. […] Then, 0.01 ml of the aldose reductase solution was added thereto to start reaction and decreasing of absorbance of 340 nm was measured at 25°C with time. […]
Kind request: treat 40% as inclusive, so inhibition at 0.5 µM at 40% or higher is yes, anything lower is no.

Here are 5 compounds together with their reported answers.
CC(C)Cc1nc2c3nc(C(=O)O)cc(C(=O)O)c3c3[nH]c(C(=O)O)cc3c2o1 : yes
NC(=O)CCc1nc2c3nc(C(=O)O)cc(C(=O)O)c3c3[nH]c(C(=O)O)cc3c2o1 : yes
CCC(C)c1nc2c3nc(C(=O)O)cc(C(=O)O)c3c3[nH]c(C(=O)O)cc3c2o1 (stereo not shown) : yes
CSCCc1nc2c3nc(C(=O)O)cc(C(=O)O)c3c3[nH]c(C(=O)O)cc3c2o1 : no
Cc1nc2c3nc(C(=O)O)cc(C(=O)O)c3c3[nH]c(C(=O)O)cc3c2o1 : yes

query: Entry O=C(O)CCc1nc2c3nc(C(=O)O)cc(C(=O)O)c3c3[nH]c(C(=O)O)cc3c2o1 : is its inhibition at 0.5 µM no less than 40%?
result: no

====

# Tested on: kidney
# Assay Comment: Toxicity to kidney determined by blood examination
# Type: in vivo, mice
# Experimental Conditions: serum, 200 mg/kg mouse intraperitoneally; Table 2, no administration 0.8
Metric Name: Creatinine (mg/dL)
Give bare numbers, in mg/dL.

CCC(C)c1nc2c3nc(C(=O)O)cc(C(=O)O)c3c3[nH]c(C(=O)O)cc3c2o1 (stereo not shown) : 0.8

Batch lookup, Creatinine per entry.
1. O=C(O)c1cc(C(=O)O)c2c(n1)c1nc(Cc3ccccc3)oc1c1cc(C(=O)O)[nH]c12
2. O=C(O)c1cc(C(=O)O)c2c(n1)c1ncoc1c1cc(C(=O)O)[nH]c12
3. CSCCc1nc2c3nc(C(=O)O)cc(C(=O)O)c3c3[nH]c(C(=O)O)cc3c2o1

result:
[0.7, 0.8, 0.7]

====

Give inhibition at 5 µM for every item shown.
# Study System: aldose reductase of kidney (Canis lupus familiaris, UniProt A0A8I3P2L6)
# Assay Comment: Inhibitory effect on aldose reductase of kidney
# Type: biochemical, dog
# Experimental Conditions: concentration 5x10^-6 M; read-out: Degree of inhibition for aldose reductase (%)
Numbers only, in %.

Would you please look over these solved cases?
O=C(O)c1cc(C(=O)O)c2c(n1)c1nc(Cc3ccccc3)oc1c1cc(C(=O)O)[nH]c12 : 63.3
CC(C)c1nc2c3nc(C(=O)O)cc(C(=O)O)c3c3[nH]c(C(=O)O)cc3c2o1 : 68.2
O=C(O)CCc1nc2c3nc(C(=O)O)cc(C(=O)O)c3c3[nH]c(C(=O)O)cc3c2o1 : 55

Batch lookup, inhibition at 5 µM per entry.
1. O=C(O)c1cc(C(=O)O)c2c(n1)c1nc(Cc3ccc(O)cc3)oc1c1cc(C(=O)O)[nH]c12 [4-Hydroxybenzyl OPQ]
2. O=C(O)c1cc(C(=O)O)c2c(n1)C(=O)C(=O)c1cc(C(=O)O)[nH]c1-2 [PQQ, pyrroloquinolinequinone, reference compound]
3. NC(=O)CCc1nc2c3nc(C(=O)O)cc(C(=O)O)c3c3[nH]c(C(=O)O)cc3c2o1
4. CSCCc1nc2c3nc(C(=O)O)cc(C(=O)O)c3c3[nH]c(C(=O)O)cc3c2o1

result:
[71.3, 42.8, 89.1, 81.8]

====

# Test system: kidney
# Assay Comment: Toxicity to kidney determined by blood examination
# Type: in vivo, mice
# Experimental Conditions: serum, 160 mg/kg mouse intraperitoneally; Table 2, no administration 24
Give Urea nitrogen for every item shown.
Numbers only, in mg/dL.

O=C(O)c1cc(C(=O)O)c2c(n1)c1ncoc1c1cc(C(=O)O)[nH]c12 [OPQ, oxazopyrroloquinoline] : 27

Batch lookup, Urea nitrogen per entry.
1. O=C(O)c1cc(C(=O)O)c2c(n1)c1nc(Cc3ccccc3)oc1c1cc(C(=O)O)[nH]c12 [Benzyl OPQ]
2. CCC(C)c1nc2c3nc(C(=O)O)cc(C(=O)O)c3c3[nH]c(C(=O)O)cc3c2o1 (stereo not shown) [1-Methylpropyl OPQ]
3. CSCCc1nc2c3nc(C(=O)O)cc(C(=O)O)c3c3[nH]c(C(=O)O)cc3c2o1 [2-Methylthioethyl OPQ]

result:
[26, 27, 26]
